# System: CP329
# protocol.details: qHTS profiling for inhibitors of Plasmodium falciparum proliferation (AID 504749); also: nearly all actives have a fitted effect of over 60% in size
# test.settings: P. falciparum in erythrocytes, SYBR Green DNA, 72 h; series mostly up to 28.7 µM
Records with an inconclusive call do not appear. Activity calls are given as the source filed them. Calls follow the shape of the dose curve; as a rule, active = well fitted inhibition curve with a large enough effect; inconclusive = small, poorly fitted or top-dose-only effect; inactive = flat fitted curve, though single readings scatter.
Parameter call: string, one of active, inactive

# outcome recorded in this test, key = `CC1(C)[C@@H]2CC[C@@]1(C)C(=O)C2` inactive

# outcome recorded in this test, key = `COc1ccc(Cl)cc1C(=O)NCCc1ccc(S(=O)(=O)NC(=O)NC2CCCCC2)cc1` inactive

# outcome recorded in this test, key = `Cc1cccc(C)c1NC(=O)CN(CC(=O)O)CC(=O)O` inactive

# outcome recorded in this test, key = `CCOc1nc2cccc(C(=O)O)c2n1Cc1ccc(-c2ccccc2-c2nn[nH]n2)cc1` inactive

# outcome recorded in this test, key = `Oc1cccc(O)c1` inactive

# outcome recorded in this test, key = `CC(=O)Oc1ccc(C2(c3ccc(OC(C)=O)cc3)C(=O)Nc3ccccc32)cc1` inactive

# outcome recorded in this test, key = `O=c1cc(CO)occ1O` inactive

# outcome recorded in this test, key = `CC12CCC(CC1)C(C)(C)O2` inactive

# outcome recorded in this test, key = `CCCCOC(=O)c1ccc(O)cc1` inactive

# outcome recorded in this test, key = `Nc1ccc(S(=O)(=O)Nc2ccc(Cl)nn2)cc1` inactive

# outcome recorded in this test, key = `O=Cc1ccccc1C=O` inactive

# outcome recorded in this test, key = `O=C1c2c(O)cccc2Cc2cccc(O)c21` inactive

# outcome recorded in this test, key = `CC[C@@]1(c2ccccc2)NC(=O)N(C)C1=O` inactive

# outcome recorded in this test, key = `Nc1ccc(S(=O)(=O)Nc2ccccc2)cc1` inactive

# outcome recorded in this test, key = `NCCNCCNCCN` inactive

# outcome recorded in this test, key = `CCOc1ccc2ccccc2c1C(=O)N[C@@H]1C(=O)N2[C@@H]1SC(C)(C)[C@@H]2C(=O)O` inactive

# outcome recorded in this test, key = `Cc1cc(N)c2ccccc2[n+]1CCCCCCCCCC[n+]1c(C)cc(N)c2ccccc21` active

# outcome recorded in this test, key = `Cn1c(=O)c2c(ncn2CC2OCCO2)n(C)c1=O` inactive

# outcome recorded in this test, key = CN1CCCCC1CCN1c2ccccc2Sc2ccc(S(C)=O)cc21 (stereo unspecified) inactive

# outcome recorded in this test, key = CCCCC(CC)COC(=O)c1ccccc1O (stereo unspecified) inactive

# outcome recorded in this test, key = `Nc1nc2c(ncn2CCC(CO)CO)c(=O)[nH]1` inactive

# outcome recorded in this test, key = `O=c1cc[nH]c(=O)[nH]1` inactive

# outcome recorded in this test, key = `CNCCCC1c2ccccc2C=Cc2ccccc21` inactive

# outcome recorded in this test, key = `Cc1c(O)cccc1C(=O)N[C@@H](CSc1ccccc1)[C@H](O)CN1C[C@H]2CCCC[C@H]2C[C@H]1C(=O)NC(C)(C)C` inactive

# outcome recorded in this test, key = `CCCCCCCCCCCCCCCC(=O)NCCO` inactive

# outcome recorded in this test, key = `O=C1O[C@H]([C@@H](O)CO)C(O)=C1O` inactive

* * *

# protocol.details: qHTS of pediatric cancer cell lines to identify multiple opportunities for drug repurposing: Primary screen for Saos-2 cells (AID 1347097); also: nearly all actives have a fitted effect of over 40% in size
# test.settings: Saos-2 viability, CellTiter-Glo ATP luminescence, 48 h; series mostly up to 46 µM
# Protocol: Drug repurposing or repositioning has been offered as a strategy for drug development in oncology programs. This approach has special potential for childhood cancers and other rare or orphan diseases, where the expected return on new drug development has been a disincentive to pharmaceuticals. […] We employed a titration-based paradigm (quantitative high-throughput screening or qHTS), where all compounds were tested at multiple concentrations for their effect on cell viability. […]
Results filed as inconclusive are left out. The source made the active and inactive calls. The call rests on the fitted dose curve; in most records, active means well fitted cell-killing curve with a large enough effect; inconclusive means small, poorly fitted or top-dose-only effect; inactive means no such curve, though single readings can be large or run the other way.
Parameter call: string, one of active, inactive

# outcome recorded in this test, key = `Cc1cc2c(cc1S(N)(=O)=O)S(=O)(=O)CCC2` inactive

# outcome recorded in this test, key = `O=c1cc[nH]c(=S)[nH]1` inactive

# outcome recorded in this test, key = `O=Cc1ccccc1C=O` inactive

# outcome recorded in this test, key = `CNC(=O)Oc1ccc2c(c1)[C@]1(C)CCN(C)[C@@H]1N2C` inactive

# outcome recorded in this test, key = `COc1ccc(Cl)cc1C(=O)NCCc1ccc(S(=O)(=O)NC(=O)NC2CCCCC2)cc1` inactive

# outcome recorded in this test, key = `Cc1ccc(C(C)C)cc2c(C)ccc1-2` inactive

# outcome recorded in this test, key = `CC(=O)CCC(=O)O` inactive

# outcome recorded in this test, key = C[C@H](NC(CCc1ccccc1)C(=O)O)C(=O)N1CCC[C@H]1C(=O)O (some centres not stated) inactive

# outcome recorded in this test, key = OCc1cc(C(O)CNCCCCCCOCCCCc2ccccc2)ccc1O (configuration not stated) inactive

# outcome recorded in this test, key = `NC(=O)c1ncn([C@@H]2O[C@H](CO)[C@@H](O)[C@H]2O)c1N` inactive

# outcome recorded in this test, key = `CCCCC/C(C=O)=C\c1ccccc1` active

# outcome recorded in this test, key = `CN(C)CC[C@@H](c1ccc(Cl)cc1)c1ccccn1` inactive
